Recorded NF‐ĸB luciferase reporter assay, No crosslinking, EC50 values for a group of binders are listed next.
# Measurement target: human GITR on 293F‐hGITR cells (Homo sapiens (Human)., UniProt Q9Y5U5-1)
# Sequence (Q9Y5U5 26-241): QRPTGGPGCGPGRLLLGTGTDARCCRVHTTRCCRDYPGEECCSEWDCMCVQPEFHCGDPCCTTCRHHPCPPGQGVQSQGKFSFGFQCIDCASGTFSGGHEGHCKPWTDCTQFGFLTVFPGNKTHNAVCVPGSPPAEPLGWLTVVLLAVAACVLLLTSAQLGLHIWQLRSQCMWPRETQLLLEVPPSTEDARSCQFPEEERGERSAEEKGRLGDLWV
# Assay procedure: cell-based or functional assay
Write it as a number; the unit nM goes unstated.

Query: NF‐ĸB luciferase reporter assay, No crosslinking, EC50; subject: hab070 (antibody, V domains shown, 3503‐hab070‐VH; 3503‐hab070‐Vk; Whole antibody, human IgG1 heavy chain constant region, human kappa light chain constant region; source: FreeStyle 293F, transiently co-transfected, purified from culture supernatant) VH: QVQLVESGGGVVQPGRSLRLSCAASGFTFSSYGMHWVRQAPGKGLEWVAVIWYETSNKFYVDSVKGRFTISRDNSKNTLYLQMNSLRAEDTAVYYCARYGASSGWYWYFDLWGRGTLVTVSS VL: DIQLTQSPSFLSASVGDRVTITCRASQGISSFLAWYQQKPGKAPKLLIYAASTLQSGVPSRFSGSGSGTEFTLTISSLQPEDFATYCCQQLNSYPFTFGQGTKLEIK 0.111

Query: NF‐ĸB luciferase reporter assay, No crosslinking, EC50; subject: hab076e1 (antibody, V domains shown, as the VH of m15 (3503‐hab076‐VH); 3503‐hab076‐Vk(C2Y); the substitution is against the VL of m15 (Cys in FR3 of VL); position not given; Whole antibody, human IgG1 heavy chain constant region, human kappa light chain constant region; source: FreeStyle 293F, transiently co-transfected, purified from culture supernatant) VH: QVQLVESGGGVVQPGRSLRLSCAASGFTFSSYGMHWVRQAPGKGLEWVAVIWYETSNKYYADSVKGRFTISRDNSKNTLYLQMNSLRAEDTAVYYCARYGASSGWYWYFDLWGRGTLVTVSS VL: DIQLTQSPSFLSASVGDRVTITCRASQGISSYLAWYQQKPGKAPKLLIYAASTLQSGVPSRFSGSGSGTEFTLTISSLQPEDFATYYCQQLNSYPFTFGQGTKLEIK 0.264

Query: NF‐ĸB luciferase reporter assay, No crosslinking, EC50; subject: hab064 (antibody, V domains shown, 3503‐hab064‐VH; 3503‐hab064‐Vk; Whole antibody, human IgG1 heavy chain constant region, human kappa light chain constant region; source: FreeStyle 293F, transiently co-transfected, purified from culture supernatant) VH: QVQLVESGGGVVQPGRSLRLSCAASGFTFSSYGMHWVRQAPGKGLEWVAVIWYETSNKYYADSVKGRFTISRDNSKNTLYLQMNNLRAEDTAVYYCARYGGNSGWYWYFDLWGRGTLVTVSS VL: DIQLTQSPSFLSASVGDRVTITCRASQGISSFLAWYQQKPGTAPKLLIYAASTLQSGVPSRFSGSGSGTEFTLTISSLQPEDFATYCCQQLNSYPFTFGQGTKLEIK 0.177

Values compiled from paper PMC9340783.
